System: NCI-H460 lung
measure.name: GI50

Worked set:
Nc1ccc2c(c1)c(N)nn2C(=O)Nc1ccc(Cc2ccccc2)cc1 : 4.64 µM
CC/C=C\C/C=C\C[C@H](O)C/C=C1/C(=O)C=C[C@@H]1C/C=C\CCCC(=O)OC : 3.2 µM
O=C(Cc1csc2nc(-c3ccc(Br)cc3)cn12)N/N=C/c1ccc(O)cc1 : 56.9 µM

Find GI50 for COc1cccc(C2NC(=S)NC(C)=C2C(=O)Nc2ccc(Cl)c(Cl)c2)c1 (stereo unspecified) on NCI-H460 lung and write it down.
8.21 µM

Find GI50 for CC1COCC(C)N1C1=C(Cl)C(=O)c2ccccc2C1=O (stereo unspecified) on NCI-H460 lung and write it down.
15.8 µM

Find GI50 for CCC(CC(C)C)Nc1ccc(NC(CC)CC(C)C)cc1 (stereo unspecified) on NCI-H460 lung and write it down.
17.5 µM

* * *

Test system: EKVX NSCLC
Test: NCI tumour cell line growth inhibition, 48 h
measure.name: TGI

Worked set:
Cc1csc(NC(=NCCN2CCOCC2)Nc2nc(C)cs2)n1 : > 100 µM
FC1OC2OC1C(OCc1ccccc1)C(OCc1ccccc1)C2OCc1ccccc1 (configuration not stated) : > 100 µM
COC(=O)C1=C(O)C(C(=O)OC)[C@]2(O)[C@H](C(=O)OC)[C@H]1C[C@@H](c1ccc([N+](=O)[O-])cc1)[C@H]2C(=O)OC (some centres not stated) : > 100 µM
COc1ccc(OC)c2c3c(ccc12)C(c1ccccc1)OC3=O (configuration not stated) : > 100 µM
Cc1ccc(-c2n[nH]c(=O)n2/N=C\c2ccccc2)cc1 : > 100 µM

Recall and state the measured TGI for CCOC(=O)C1COc2cc(-c3cc(=O)c4ccccc4o3)ccc2O1 (configuration not stated) .
> 100 µM

Recall and state the measured TGI for O=C1CC(n2cccc2)c2c(Br)sc(Br)c21 (configuration not stated) .
33.3 µM

Recall and state the measured TGI for CCOC(=O)C1(C(F)(F)F)N=C(CC)OC(N2CCOCC2)=N1 (configuration not stated) .
> 100 µM

Recall and state the measured TGI for C/C(=N\Nc1nc2ccccc2[nH]1)c1cc2ccccc2cn1 .
1.35 µM

* * *

Quick reference: TGI of the listed items.
Test system: HCC-2998 colon
Assay: NCI tumour cell line growth inhibition, 48 h

Worked set:
O=C1C=CC(=O)c2c(Cl)ccc(O)c21 : > 100 µM
Nc1nc(Cl)cc(NCC2(O)CCCC2)n1 : > 100 µM
CCOP(=O)(OCC)/C(C#N)=C/c1cccn1Cc1ccccc1 : > 100 µM
O=[N+]([O-])c1cccnc1-n1cnc2ccccc21 : > 100 µM

Find TGI for CN1CCN(c2nc(-c3ccncc3)nc3sc4c(c23)CCCCCC4)CC1 on HCC-2998 colon and write it down.
13.2 µM

Find TGI for Cc1cc2c(c(=O)n1C)SCC2 on HCC-2998 colon and write it down.
> 100 µM

Find TGI for COc1ccc2nc3n(c2c1)CCc1cc(OC)c(OC)cc1-3 on HCC-2998 colon and write it down.
52.9 µM

* * *

Test system: SNB-75 CNS
Test: NCI tumour cell line growth inhibition, 48 h
measure.name: TGI

CC1(C)CC[C@]2(C(N)=O)CC[C@]3(C)C(=CC[C@@H]4[C@@]5(C)C/C(=C/c6ccncc6)C(=O)C(C)(C)[C@@H]5CC[C@]43C)[C@@H]2C1 : 8.22 µM
C[C@]12CC[C@H](OC3CCCCO3)CC1=CC[C@@H]1C2CC[C@]2(C)/C(=N/O)CCC12 (stereo partly drawn) : 41.9 µM
Cc1[nH]c(=O)[nH]c(=S)c1C(=O)Nc1cccc2cc3ccccc3cc12 : > 100 µM
Cc1cc(Cl)cc2c1NC(=O)C2=O (tested in a mixture with another compound) : > 100 µM
CC(C)C(=O)Oc1cc2c(=O)oc3c(OC(=O)C(C)C)c(OC(=O)C(C)C)cc4c(=O)oc(c1OC(=O)C(C)C)c2c34 : > 100 µM
CCOc1cc(-c2ccc[nH]2)[nH]c1/C=C1\N=C(C)C(C(=O)OC)=C1C : 0.3 µM
CC1CC2(C)CC(=O)C1C1C(=O)N(CCN3CCCCC3)C(=O)C12 (stereo not drawn) : > 100 µM

Recall and state the measured TGI for COC(OC)c1cc2c(cc1C(=O)[C@@]13CCC[C@@H]1NC(=O)O3)OCO2 .
> 100 µM
